procedure-text: Human liver microsome stability
Format: in vitro ADME
conditions-used: both, liver microsomes, pH 7.4
outcome-measure: microsomal CLint at 1 μM (µL/min/mg)

structure_string=CC1(C)CC[N+](C)(CC(=O)OC2CCCCCCCCCCC2)CC1.[I-] outcome_measure="microsomal CLint at 1 μM" recorded_number=1150
structure_string=C[N+]1(CC(=O)OC2CCCCCCCCCCC2)CCCC1.[I-] outcome_measure="microsomal CLint at 1 μM" recorded_number=721
structure_string=C[N+]1(CC(=O)OC2CCCCCCCCCCC2)CCSCC1.[I-] outcome_measure="microsomal CLint at 1 μM" recorded_number=1070
structure_string=C[N+]1(CC(=O)NC2CCCCCCCCCCC2)CCCCC1.[I-] outcome_measure="microsomal CLint at 1 μM" recorded_number=850
structure_string=C[N+]1(CC(=O)OC2CCCCCCCCCCC2)CCCCCC1.[I-] outcome_measure="microsomal CLint at 1 μM" recorded_number=1200

---

Test system: androgen-dependent LNCaP PC cells
procedure-text: Cell viability
Format: cell-based, human
conditions-used: Homo sapiens, 96 h, read-out: ED20
outcome-measure: IC20 (nM)

molecule=CC1(C)CC[N+](C)(CC(=O)OC2CCCCCCCCCCC2)CC1.[I-] outcome_measure=IC20 unit_text=nM recorded_number=1300
molecule="C[C@]1(c2nc3c(C(N)=O)cccc3[nH]2)CCCN1 [Veliparib, reference compound]" outcome_measure=IC20 unit_text=nM recorded_number=10600
molecule=C[N+]1(CC(=O)NC2CCCCCCCCCCC2)CCCCC1.[I-] outcome_measure=IC20 unit_text=nM recorded_number=5100
molecule=C[N+]1(CC(=O)OC2CCCCCCCCCCC2)CCCCCC1.[I-] outcome_measure=IC20 unit_text=nM recorded_number=900
molecule=C[N+]1(CC(=O)OC2CCCCCCCCCCC2)CCCC1.[I-] outcome_measure=IC20 unit_text=nM recorded_number=900
molecule="O=C(c1cc(Cc2n[nH]c(=O)c3ccccc23)ccc1F)N1CCN(C(=O)C2CC2)CC1 [Olaparib, reference compound]" outcome_measure=IC20 unit_text=nM recorded_number=700
molecule=C[N+]1(CC(=O)OC2CCCCCCCCCCC2)CCSCC1.[I-] outcome_measure=IC20 unit_text=nM recorded_number=4200

---

procedure-text: Mouse liver microsome stability
Format: in vitro ADME
conditions-used: male, CD-1, mouse, liver microsomes, pH 7.4
outcome-measure: remaining at 1 h, 1 μM (%)

structure_string=C[N+]1(CC(=O)OC2CCCCCCCCCCC2)CCSCC1.[I-] outcome_measure="remaining at 1 h, 1 μM" recorded_number=88
structure_string=C[N+]1(CC(=O)OC2CCCCCCCCCCC2)CCCC1.[I-] outcome_measure="remaining at 1 h, 1 μM" recorded_number=98
structure_string=C[N+]1(CC(=O)OC2CCCCCCCCCCC2)CCCCCC1.[I-] outcome_measure="remaining at 1 h, 1 μM" recorded_number=87
structure_string=C[N+]1(CC(=O)NC2CCCCCCCCCCC2)CCCCC1.[I-] outcome_measure="remaining at 1 h, 1 μM" recorded_number=101
structure_string=CC1(C)CC[N+](C)(CC(=O)OC2CCCCCCCCCCC2)CC1.[I-] outcome_measure="remaining at 1 h, 1 μM" recorded_number=84

---

Tested on: castration-resistant DU-145 PC cells
procedure-text: Cell viability
Assay type: cell-based, human
conditions-used: DU-145, 96 hours, CellTiter Blue
ED90 under 200 µM gets 1, anything at or over 200 µM gets 0.

molecule=CC1(C)CC[N+](C)(CC(=O)OC2CCCCCCCCCCC2)CC1.[I-] answer_label=1
molecule=C[N+]1(CC(=O)NC2CCCCCCCCCCC2)CCCCC1.[I-] answer_label=0
molecule="CNCc1ccc(-c2[nH]c3cc(F)cc4c3c2CCNC4=O)cc1 [Rucaparib, reference compound]" answer_label=1
molecule="O=C(c1cc(Cc2n[nH]c(=O)c3ccccc23)ccc1F)N1CCN(C(=O)C2CC2)CC1 [Olaparib, reference compound]" answer_label=1
molecule=C[N+]1(CC(=O)OC2CCCCCCCCCCC2)CCCCCC1.[I-] answer_label=1
molecule="C[C@]1(c2nc3c(C(N)=O)cccc3[nH]2)CCCN1 [Veliparib, reference compound]" answer_label=0
molecule=C[N+]1(CC(=O)OC2CCCCCCCCCCC2)CCCC1.[I-] answer_label=0

---

System: castration-resistant DU-145 PC cells
procedure-text: Cell viability
Format: cell-based, human
conditions-used: DU-145, 96 hours, CellTiter Blue
ED50 strictly under 20 µM means 1; at 20 µM or over means -1.

compound=CC1(C)CC[N+](C)(CC(=O)OC2CCCCCCCCCCC2)CC1.[I-] answer_label=-1
compound=C[N+]1(CC(=O)OC2CCCCCCCCCCC2)CCCCCC1.[I-] answer_label=-1
compound="CNCc1ccc(-c2[nH]c3cc(F)cc4c3c2CCNC4=O)cc1 [Rucaparib, reference compound]" answer_label=1
compound="C[C@]1(c2nc3c(C(N)=O)cccc3[nH]2)CCCN1 [Veliparib, reference compound]" answer_label=-1
compound="O=C(c1cc(Cc2n[nH]c(=O)c3ccccc23)ccc1F)N1CCN(C(=O)C2CC2)CC1 [Olaparib, reference compound]" answer_label=1
compound=C[N+]1(CC(=O)NC2CCCCCCCCCCC2)CCCCC1.[I-] answer_label=-1
compound=C[N+]1(CC(=O)OC2CCCCCCCCCCC2)CCCC1.[I-] answer_label=-1

---

procedure-text: Kinetic aqueous solubility in PBS
Format: physicochemical
conditions-used: phosphate buffered saline, pH 7.4, aqueous buffer, kinetic from dmso stock
# Lookup of reported solubility at 90 min keyed by entry
outcome-measure: solubility at 90 min

structure_string=C[N+]1(CC(=O)OC2CCCCCCCCCCC2)CCCCCC1.[I-] result="140 µM"
structure_string=CC1(C)CC[N+](C)(CC(=O)OC2CCCCCCCCCCC2)CC1.[I-] result="95.2 µM"
structure_string=C[N+]1(CC(=O)NC2CCCCCCCCCCC2)CCCCC1.[I-] result="191 µM"
structure_string=C[N+]1(CC(=O)OC2CCCCCCCCCCC2)CCSCC1.[I-] result="110 µM"
structure_string=C[N+]1(CC(=O)OC2CCCCCCCCCCC2)CCCC1.[I-] result="125 µM"

---

System: castration-resistant PC-3 PC cells
procedure-text: Cell viability
Assay type: cell-based, human
conditions-used: Homo sapiens, 96 h, read-out: ED90
outcome-measure: IC90 (µM)

compound="C[C@]1(c2nc3c(C(N)=O)cccc3[nH]2)CCCN1 [Veliparib, reference compound]" system="castration-resistant PC-3 PC cells" outcome_measure=IC90 unit_text=µM recorded_number=1630
compound="O=C(c1cc(Cc2n[nH]c(=O)c3ccccc23)ccc1F)N1CCN(C(=O)C2CC2)CC1 [Olaparib, reference compound]" system="castration-resistant PC-3 PC cells" outcome_measure=IC90 unit_text=µM recorded_number=384
compound="CNCc1ccc(-c2[nH]c3cc(F)cc4c3c2CCNC4=O)cc1 [Rucaparib, reference compound]" system="castration-resistant PC-3 PC cells" outcome_measure=IC90 unit_text=µM recorded_number=157
compound=C[N+]1(CC(=O)OC2CCCCCCCCCCC2)CCCC1.[I-] system="castration-resistant PC-3 PC cells" outcome_measure=IC90 unit_text=µM recorded_number=85
compound=C[N+]1(CC(=O)OC2CCCCCCCCCCC2)CCCCCC1.[I-] system="castration-resistant PC-3 PC cells" outcome_measure=IC90 unit_text=µM recorded_number=40.8
compound=C[N+]1(CC(=O)NC2CCCCCCCCCCC2)CCCCC1.[I-] system="castration-resistant PC-3 PC cells" outcome_measure=IC90 unit_text=µM recorded_number=310
compound=CC1(C)CC[N+](C)(CC(=O)OC2CCCCCCCCCCC2)CC1.[I-] system="castration-resistant PC-3 PC cells" outcome_measure=IC90 unit_text=µM recorded_number=48.1
compound=C[N+]1(CC(=O)OC2CCCCCCCCCCC2)CCSCC1.[I-] system="castration-resistant PC-3 PC cells" outcome_measure=IC90 unit_text=µM recorded_number=3270

---

Listing of recorded half-life at 1 μM by entry.
procedure-text: Human liver microsome stability
Format: in vitro ADME
conditions-used: both, liver microsomes, pH 7.4
outcome-measure: half-life at 1 μM

structure_string=CC1(C)CC[N+](C)(CC(=O)OC2CCCCCCCCCCC2)CC1.[I-] outcome_measure="half-life at 1 μM" result="1.2 min"
structure_string=C[N+]1(CC(=O)OC2CCCCCCCCCCC2)CCSCC1.[I-] outcome_measure="half-life at 1 μM" result="1.3 min"
structure_string=C[N+]1(CC(=O)NC2CCCCCCCCCCC2)CCCCC1.[I-] outcome_measure="half-life at 1 μM" result="1.6 min"
structure_string=C[N+]1(CC(=O)OC2CCCCCCCCCCC2)CCCC1.[I-] outcome_measure="half-life at 1 μM" result="1.9 min"
structure_string=C[N+]1(CC(=O)OC2CCCCCCCCCCC2)CCCCCC1.[I-] outcome_measure="half-life at 1 μM" result="1.2 min"
